# credit: paper PMC9827809

Measurement target: cell cycle and apoptosis regulator protein 2 (CCAR2) (Homo sapiens, UniProt Q8N163)
Construct: C-terminal Flag tag fused CCAR2 in pGEX-4T-1 (GST-tagged), expressed in E. coli BL21 (DE3)
Test details: SPR (Biacore 8K, CM5 chip, immobilized protein); also SILAC AP-MS from HEK293T lysate
Reported property: Kd

Ask: Please give the measured Kd for this compound: O=C(CCCC[C@@H]1SC[C@@H]2NC(=O)N[C@@H]21)NCCOCCOCCOCCOCCOCc1cn([C@@H](CC(=O)N2CCn3c(nnc3C(F)(F)F)C2)Cc2cc(F)c(F)cc2F)nn1 [biotin-PEG5-sitagliptin]
Reply: 441 µM

====

Measurement target: T-complex protein 1 subunit alpha (TCP1) (Homo sapiens, UniProt P17987, D88A)
Construct: TCP1 mutant D88A
Sequence (P17987 whole entry D88A, one chain of several): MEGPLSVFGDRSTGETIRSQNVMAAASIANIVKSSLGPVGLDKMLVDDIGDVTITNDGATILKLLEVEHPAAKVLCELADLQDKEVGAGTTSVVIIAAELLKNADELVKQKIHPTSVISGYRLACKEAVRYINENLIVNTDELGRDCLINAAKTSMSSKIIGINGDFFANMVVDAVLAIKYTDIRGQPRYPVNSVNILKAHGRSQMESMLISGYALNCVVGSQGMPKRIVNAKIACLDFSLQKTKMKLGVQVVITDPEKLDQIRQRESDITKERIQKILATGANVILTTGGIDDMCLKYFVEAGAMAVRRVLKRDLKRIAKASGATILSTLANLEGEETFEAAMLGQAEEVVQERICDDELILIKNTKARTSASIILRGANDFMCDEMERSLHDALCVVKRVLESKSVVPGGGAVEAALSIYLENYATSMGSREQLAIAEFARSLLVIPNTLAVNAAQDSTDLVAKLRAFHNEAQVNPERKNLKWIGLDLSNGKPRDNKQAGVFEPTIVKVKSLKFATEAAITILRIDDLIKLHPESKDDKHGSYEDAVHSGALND
Test details: SPR on mutant TCP1
Reported property: Kd (µM)
// units = µM; emit number, no label

Ask: Please give the measured Kd for this molecule: O=C(CCCC[C@@H]1SC[C@@H]2NC(=O)N[C@@H]21)NCCOCCOCCOCCOCCOCc1cn([C@@H](CC(=O)N2CCn3c(nnc3C(F)(F)F)C2)Cc2cc(F)c(F)cc2F)nn1
Reply: 494
